Please provide measured IC50 for the entries that follow.
TARGET OR SYSTEM: γ-secretase (Homo sapiens (Human), UniProt P49768)
TEST PROTOCOL: In vitro γ-secretase assay, solubilized γ-secretase, ECL
Assay type: biochemical
MEASUREMENT PARAMETERS: Sb4 substrate
Your answer should be a plain number; it is taken to be in nM.

// recorded IC50 for CC(NC(=O)Cc1cc(F)cc(F)c1)C(=O)NC1N=C(c2ccccc2)c2ccccc2N(C)C1=O (centres unmarked) [Compound E] : 1.2

// recorded IC50 for O=C(COc1ccc(F)cc1)Nc1ccc2c(c1)CC1CCC(C2)C1NS(=O)(=O)c1ccc(Cl)s1 (centres unmarked) [GSI-34] : 1

* * *

TARGET OR SYSTEM: γ-secretase (Mus musculus (Mouse))
TEST PROTOCOL: Cell-based activity assay, N2A cells stably over-expressing APP
MEASUREMENT PARAMETERS: read-out: Cell-based (nM), IC50; 24 hrs, Aβ40
MEASURED PROPERTY: IC50
Quote the value and follow it with the unit of measurement.

// recorded IC50 for CC(NC(=O)Cc1cc(F)cc(F)c1)C(=O)NC1N=C(c2ccccc2)c2ccccc2N(C)C1=O (stereo not shown) : 4.6 nM

* * *

TARGET OR SYSTEM: γ-secretase (Homo sapiens (Human))
TEST PROTOCOL: Exo-cell γ-secretase assay, HeLa cells, Sb4 substrate
Assay type: cell-based
MEASUREMENT PARAMETERS: HTRF detection; read-out: IC50, exo-cell assay
MEASURED PROPERTY: pIC50
# pIC50: negative log10 of molar concentration; output just the value

// recorded pIC50 for O=C(COc1ccc(F)cc1)Nc1ccc2c(c1)CC1CCC(C2)C1NS(=O)(=O)c1ccc(Cl)s1 (stereo not shown) [GSI-34] : 8.27

* * *

TARGET OR SYSTEM: γ-secretase (Homo sapiens (Human), UniProt P49768)
TEST PROTOCOL: Exo-cell γ-secretase assay, HeLa cells, Sb4 substrate
Assay type: cell-based
MEASUREMENT PARAMETERS: ECL detection; read-out: Exo-Cell (nM), IC50
Please provide measured IC50 for the entries that follow.
Your answer should be a plain number; it is taken to be in nM.

// recorded IC50 for O=C(COc1ccc(F)cc1)Nc1ccc2c(c1)CC1CCC(C2)C1NS(=O)(=O)c1ccc(Cl)s1 (centres unmarked) [GSI-34] : 5.9

// recorded IC50 for CC(NC(=O)Cc1cc(F)cc(F)c1)C(=O)NC1N=C(c2ccccc2)c2ccccc2N(C)C1=O (centres unmarked) [Compound E] : 3.8

* * *

TARGET OR SYSTEM: UniProt P49768
TEST PROTOCOL: Extended exo-cell γ-secretase assay, HeLa cells
Type: cell-based
MEASUREMENT PARAMETERS: Extended Exo-Cell (nM), IC50, 24 hrs pretreatment
MEASURED PROPERTY: IC50 (nM)
Your answer should be a plain number; it is taken to be in nM.

Field IC50 (UniProt P49768), entry CC(NC(=O)Cc1cc(F)cc(F)c1)C(=O)NC1N=C(c2ccccc2)c2ccccc2N(C)C1=O (stereo not shown) [Compound E] : 2.83

* * *

Please provide measured IC50 for the entries that follow.
TARGET OR SYSTEM: γ-secretase (Mus musculus (Mouse), UniProt P49769)
TEST PROTOCOL: Cell-based activity assay, N2A cells stably over-expressing APP
MEASUREMENT PARAMETERS: 24 hrs, Aβ40; read-out: Cell-based (nM), IC50
Your answer should be a plain number; it is taken to be in nM.

Field IC50 (γ-secretase (Mus musculus (Mouse), UniProt P49769)), entry CC(NC(=O)Cc1cc(F)cc(F)c1)C(=O)NC1N=C(c2ccccc2)c2ccccc2N(C)C1=O (centres unmarked) : 4.6

Field IC50 (γ-secretase (Mus musculus (Mouse), UniProt P49769)), entry O=C(COc1ccc(F)cc1)Nc1ccc2c(c1)CC1CCC(C2)C1NS(=O)(=O)c1ccc(Cl)s1 (centres unmarked) : 32.4
